- System: DLD1 NRF2-WT
- measurementProtocol: drug sensitivity score (DSS) cytotoxicity (DSS score); higher = more toxic; extreme values may be limits of the assay
- reportedConditions: 72 h; CellTox Green cytotoxicity
parameter: drug sensitivity score

> print(dat)
                                   compound  result
1  C[C@@H]1COCCN1c1cc(C2([S@](C)(=N)=O)CC2)nc(-c2cc[nH]c3nccc2-3)n1 [AZD6738]       0
2  COc1cc(N2CCC(N3CCN(C)CC3)CC2)ccc1Nc1ncnc(Nc2ccccc2S(=O)(=O)C(C)C)n1 [ASP3026]       0
3  C[C@@H](Oc1cc(-n2cnc3ccc(CN4CCN(C)CC4)cc32)sc1C(N)=O)c1ccccc1C(F)(F)F     2.4
4  C[C@@H]1CN(CC(=O)Nc2ccc3c(c2)Cc2cccc(-c4cc(=O)cc(N5CCOCC5)o4)c2S3)C[C@H](C)O1       0
5  O=C(O)c1ccc2c(c1)nc(Nc1cccc(Cl)c1)c1ccncc12 [Silmitasertib]     0.3

###

- Tested on: DLD1 NRF2-WT
- measurementProtocol: drug sensitivity score (DSS) cytotoxicity (DSS score); higher = more toxic; extreme values may be limits of the assay
- reportedConditions: 72 h; CellTox Green cytotoxicity
Recorded drug sensitivity score for the following compounds

structureNotation	drug sensitivity score
CC(C)NC(=O)COc1cccc(-c2nc(Nc3ccc4[nH]ncc4c3)c3ccccc3n2)c1	0
CN1CCN(c2nc(C3=C(c4c[nH]c5ccccc45)C(=O)NC3=O)c3ccccc3n2)CC1	0
CC1(C)CCC(c2ccc(Cl)cc2)=C(CN2CCN(c3ccc(C(=O)NS(=O)(=O)c4ccc(N[C@H](CCN5CCOCC5)CSc5ccccc5)c(S(=O)(=O)C(F)(F)F)c4)cc3)CC2)C1	4
CC[C@@]1(O)C(=O)OCc2c1cc1n(c2=O)Cc2cc3c(CN(C)C)c(O)ccc3nc2-1	3.1
COCCNCc1ccc(-c2cc3nccc(Oc4ccc(NC(=O)C5(C(=O)Nc6ccc(F)cc6)CC5)cc4F)c3s2)nc1	0
CCN1C(=O)CNc2ncc(-c3ccc(-c4nc[nH]n4)nc3C)nc21	1.4

###

Listing of entries alongside the reported drug sensitivity score.
- Tested on: DLD1 NRF2-WT
- measurementProtocol: drug sensitivity score (DSS) viability (DSS score); higher = more sensitive; extreme values may be limits of the assay
- reportedConditions: 72 h; CellTiter-Glo viability
parameter: drug sensitivity score

> print(dat)
                          structurenotation  recordednumber
1  O=C1CCc2c(Oc3ccc4c(c3)[C@@H]3[C@H](O4)[C@H]3c3nc4cc(C(F)(F)F)ccc4[nH]3)ccnc2N1               5
2  CCc1nc(C(N)=O)c(Nc2ccc(N3CCC(N4CCN(C)CC4)CC3)c(OC)c2)nc1NC1CCOCC1             2.9
3  Cc1cc(Nc2cc(CN3CCOCC3)c3nc(C)c(Cc4ccc(Cl)cc4F)n3n2)n[nH]1               5
4  COc1c(OCCCN2CCOCC2)ccc2c1N=C(NC(=O)c1cnc(N)nc1)N1CCN=C21             8.1
5  CC(C)(C)C[C@@H]1N[C@@H](C(=O)N[C@H]2CC[C@H](O)CC2)[C@H](c2cccc(Cl)c2F)[C@]12C(=O)Nc1cc(Cl)ccc12             4.4
